Sourced from ChEMBL document CHEMBL2331521

Test system: RAW264.7
protocol.text: Cancer chemopreventive activity in mouse RAW264.7 cells assessed as inhibition of LPS-induced nitric oxide production at 20 ug/mL treated 30 mins before LPS challenge measured after 20 hrs by Griess reagent assay
I'd appreciate it if you could supply inhibition at 20 µg/mL values for the items below.
Numbers only, in %.

Example entries begin here.
compound=CC1=C(C)C(=O)O[C@@H]([C@](C)(O)[C@H]2CC[C@@]3(O)[C@@H]4CC=C5CC=CC(=O)[C@]5(C)[C@H]4CC[C@]23C)C1 val=88.5
compound=CC1=C(C)C(=O)O[C@@H]([C@](C)(O)[C@@]2(O)CC[C@]3(O)[C@@H]4CC=C5C=CCC(=O)[C@]5(C)[C@H]4CC[C@]23C)C1 val=69.8
compound=CC1=C(CO)C(=O)O[C@@H]([C@](C)(O)[C@]2(O)CC[C@@]3(O)[C@@H]4CC=C5CC=CC(=O)[C@]5(C)[C@H]4CC[C@]23C)C1 val=95.1
compound="CC1=C(C)C(=O)O[C@@H]([C@](C)(O)[C@]2(O)CC[C@@]3(O)[C@@H]4CC=C5CC=CC(=O)[C@]5(C)[C@H]4CC[C@]23C)C1 [WITHANOLIDE F]" val=84.6

# evaluate next
Q: I'd like to know its inhibition at 20 µg/mL. The compound in question is CC1=C(CO)C(=O)O[C@@H]([C@](C)(O)[C@H]2CC[C@@]3(O)[C@@H]4CC=C5CC=CC(=O)[C@]5(C)[C@H]4CC[C@]23C)C1
Result: 31.4
